assay-details: A CellTox Green Cytotoxicity Assay to monitor cytotoxicity in HepG2 cells - 40 hour (AID 1224879); note: nearly all actives have a fitted effect of over 40% in size
test-settings: CellTox Green fluorescence; series mostly up to 76.8 µM
Results filed as inconclusive are left out. Active and inactive are the calls of the source. Calls come from the whole dose curve; as a rule, active = well fitted activation curve with a large enough effect in the repeat runs; inconclusive = weak or mixed curves; inactive = flat fitted curve, though single readings scatter.
Outcomes you can answer with include only these: 1.0 (active), 0.0 (inactive)

Solved entries:
[[record]]
compound = "COc1cc(Cl)ccc1Oc1ccc(Cl)cc1Cl"
assigned_class = 0.0

[[record]]
compound = "C=CCOc1ccccc1OCC(O)CNC(C)C (stereo not drawn)"
assigned_class = 0.0

[[record]]
compound = "CCOCC(O)COc1ccc(NC(=O)CC[S+](C)C)cc1 (stereo not drawn)"
assigned_class = 0.0

[[record]]
compound = "CN1CCC(=C2c3ccccc3Sc3ccccc32)CC1"
assigned_class = 1.0

[[record]]
compound = "C[C@H](CCC(=O)O)[C@H]1CC[C@H]2[C@@H]3CC[C@@H]4C[C@H](O)CC[C@]4(C)[C@H]3C[C@H](O)[C@]12C"
assigned_class = 0.0


Q. Test call for this compound, please: Cc1cccc(Nc2ccccc2)c1
A. 1.0
